Test system: HepG2
Test: GSK_TCMDC: Percent inhibition of human HepG2 cell line. Test compounds present at 10uM.
Format: functional
readout type: Inhibition (%)
State the answer as a number, implicitly in %.

{"columns": ["molecule", "readout type", "endpoint value"],
 "data": [
  ["CCCC(C)Nc1nc(C)cc(N[C@@H](CC(C)C)C(=O)Nc2ccc(OC)cc2)n1.O=C(O)C(F)(F)F (some centres not stated)", "Inhibition", 18],
  ["Cc1nc2ccc3ccc(CNc4ccc(C(=O)N[C@@H](CCC(=O)O)C(=O)N[C@@H](Cc5cccs5)C(=O)O)c(F)c4)cc3c2c(=O)[nH]1", "Inhibition", 43],
  ["Cc1cc(Cl)c(S(=O)(=O)NC2CCCC2)cc1OCC(=O)NC1CCCCC1", "Inhibition", 19],
  ["O=C(NC1CC1)c1ccc(Cn2c(SCc3cccc(Cl)c3)nc3ccccc3c2=O)cc1", "Inhibition", 2],
  ["O=C(NC1CCN(c2ccnc3cc(Cl)ccc23)C1)c1ccc(C(F)(F)F)cc1.O=C(O)C(F)(F)F (configuration not stated)", "Inhibition", 37]
]}

// returns reported Inhibition for input `O=C(NC1CC1)c1cnc(N2CCC(Cc3ccccc3)CC2)c(Cl)c1.O=C(O)C(F)(F)F` 10

Note, next up: C=C(C)C1CC=C(CN2CCC(N3CCc4cc(NC(=O)c5cc(C)on5)ccc43)C2)CC1 (configuration not stated) 26

Note, next up: `O=C(c1ccc([N+](=O)[O-])o1)N1CCN(c2ccccc2)CC1` 44

Each recorded value in this set is attributed to ChEMBL document CHEMBL1157539.
